For each entry below, report its Kd value.
Molecular target: GDP-bound KRAS wild-type protein (Homo sapiens, UniProt P01116)
Sequence (P01116 whole entry): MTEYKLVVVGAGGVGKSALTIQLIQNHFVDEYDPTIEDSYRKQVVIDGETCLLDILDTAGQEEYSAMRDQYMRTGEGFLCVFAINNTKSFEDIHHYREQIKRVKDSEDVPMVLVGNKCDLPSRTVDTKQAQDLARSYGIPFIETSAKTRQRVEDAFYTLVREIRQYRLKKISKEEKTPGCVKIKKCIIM
Experiment: Binding to KRAS by surface plasmon resonance (SPR), Single Cycle Kinetics
Conditions: SPR, Single Cycle Kinetics, GDP-bound KRAS wild-type protein; read-out: KRAS KD
Numeric answer only, unit pM assumed.

-- ask # input molecule: `CCOC[C@H]1C(=O)N[C@@H]([C@@H](C)CC)C(=O)N2CCC[C@H]2C(=O)N(C)[C@H]2C/C=C\CCN(C2=O)[C@@H](Cc2ccc(C(F)(F)F)cc2)C(=O)N(C)CC(=O)N[C@@H](CCc2ccc(C(F)(F)F)c(OC)c2)C(=O)N2C[C@H](OCC)C[C@H]2C(=O)N(C)C2(CCC2)C(=O)N(C)[C@@H](C(CC)CC)C(=O)N(C)[C@H](C(=O)N(C)C)CC(=O)N1C` ; wanted: its Kd
-- reply 350

-- ask Dear colleague, I am looking for the recorded Kd of the following molecule: `CCOC[C@H]1C(=O)N[C@@H]([C@@H](C)CC)C(=O)N(C)CC(=O)N(C)[C@H]2C/C=C\CCN(C2=O)[C@@H](Cc2ccc(C)cc2)C(=O)N(C)CC(=O)N[C@@H](CCc2ccc(C(F)(F)F)c(Cl)c2)C(=O)N2C[C@@H](C)C[C@H]2C(=O)NC2(CC(C)(C)C2)C(=O)N(C)[C@@H](C2CCCC2)C(=O)N(C)[C@H](C(=O)N(CC)CC)CC(=O)N1C`
-- reply 510

-- ask Which Kd reading was recorded for the molecule `CCO[C@@H]1C[C@H]2C(=O)NC3(CCC3)C(=O)N(C)[C@@H](C(CC)CC)C(=O)N(C)[C@H](C(=O)N3CCCCC3)CC(=O)N(C)[C@H]3CCCC/C=C/c4ccc(cc4)C[C@@H](C(=O)N(C)CC(=O)N[C@@H](CCc4ccc(Cl)c(Cl)c4)C(=O)N2C1)N1CC/C=C\C[C@@H](C1=O)N(C)C(=O)CN(C)C(=O)[C@H]([C@@H](C)CC)NC3=O` ?
-- reply 390

-- ask So what's the measured Kd for this one? `CCCN1C(=O)CN(C)C(=O)CN(C)C(=O)[C@H]([C@@H](C)CC)NC(=O)[C@@H]2CCCCCCOc3ccc(cc3)C[C@H]1C(=O)N(C)CC(=O)N[C@@H](CCc1cc(F)c(C(F)(F)F)c(F)c1)C(=O)N1C[C@H](OCC)C[C@H]1C(=O)NC1(CCCC1)C(=O)N(C)[C@@H](C1CCCC1)C(=O)N(C)[C@H](C(=O)N(C)C)CC(=O)N2C`
-- reply 18

-- ask I would be grateful if you could share the reported Kd for `CCCOC[C@H]1C(=O)N[C@@H]([C@@H](C)CC)C(=O)N(C)CC(=O)N(C)[C@H]2C/C=C\CCN(C2=O)[C@@H](Cc2ccc(C(F)(F)F)cc2)C(=O)N(C)CC(=O)N[C@@H](CCc2cc(F)c(Cl)c(F)c2)C(=O)N2C[C@H](OCC)C[C@H]2C(=O)NC2(CC(C)(C)C2)C(=O)N(C)[C@@H](C2CCCC2)C(=O)N(C)[C@H](C(=O)N(C)C)CC(=O)N1C` .
-- reply 110

-- ask Which value of Kd has been reported for `CCC[C@H]1C(=O)N[C@@H](C2CCCC2)C(=O)N(C)CC(=O)N(C)[C@H]2C/C=C\CCN(C2=O)[C@@H](Cc2ccc(C)cc2)C(=O)N(C)CC(=O)N[C@@H](CCc2ccc(C(F)(F)F)c(Cl)c2)C(=O)N2C[C@H](OCC)C[C@H]2C(=O)NC2(CC(C)(C)C2)C(=O)N(C)[C@@H](C2CCCC2)C(=O)N(C)[C@H](C(=O)N(C)C)CC(=O)N1C` in the records?
-- reply 210

-- ask What Kd value was documented for this molecule, `CCC[C@H]1C(=O)N[C@@H]([C@@H](C)CC)C(=O)N2CCC[C@H]2C(=O)N(C)[C@H]2C/C=C\CCN(C2=O)[C@@H](CC2CCCCC2)C(=O)N(C)CC(=O)N[C@@H](CCc2ccc(C(F)(F)F)c(OC)c2)C(=O)N2C[C@H](OCC)C[C@H]2C(=O)N(C)C2(CCC2)C(=O)N(C)[C@@H](C2CCCC2)C(=O)N(C)[C@H](C(=O)N(C)C)CC(=O)N1C` ?
-- reply 950

-- ask Suppose we examine the molecule `CCO[C@@H]1C[C@H]2C(=O)NC3(CC(C)(C)C3)C(=O)N(C)[C@@H](C(CC)CC)C(=O)N(C)[C@H](C(=O)N(C)C)CC(=O)N(C)[C@@H](C(C)C)C(=O)N[C@@H]([C@@H](C)CC)C(=O)N(C)CC(=O)N(C)[C@H]3C/C=C\CCN(C3=O)[C@@H](Cc3ccc(C(F)(F)F)cc3)C(=O)N(C)CC(=O)N[C@@H](CCc3ccc(C(F)(F)F)c(Cl)c3)C(=O)N2C1` ; what Kd value has been reported?
-- reply 700

-- ask Name the recorded Kd for `CCO[C@@H]1C[C@H]2C(=O)NC3(CCC3)C(=O)N(C)[C@@H](C3CCCC3)C(=O)N(C)[C@H](C(=O)N(C)C)CC(=O)N(C)[C@@H](CSC)C(=O)N[C@@H]([C@@H](C)CC)C(=O)N(C)CC(=O)N(C)[C@H]3C/C=C\CCN(C3=O)[C@@H](Cc3ccc(C(F)(F)F)cc3)C(=O)N(C)CC(=O)N[C@@H](CCc3cc(F)c(C(F)(F)F)c(F)c3)C(=O)N2C1` .
-- reply 37

-- ask Which Kd is listed for `CCO[C@@H]1C[C@H]2C(=O)NC3(CC(C)(C)C3)C(=O)N(C)[C@@H](C3CCCC3)C(=O)N(C)[C@H](C(=O)N(C)C)CC(=O)N(C)[C@@H](CC3CCC3)C(=O)N[C@@H]([C@@H](C)CC)C(=O)N(C)CC(=O)N(C)[C@H]3C/C=C\CCN(C3=O)[C@@H](Cc3ccc(C(F)(F)F)cc3)C(=O)N(C)CC(=O)N[C@@H](CCc3cc(F)c(C(F)(F)F)c(F)c3)C(=O)N2C1` ?
-- reply 79
